Property: Ki; scope: individual compounds
Assayed target: Melatonin receptor type 1A (Homo sapiens)
Sequence (P48039 whole entry): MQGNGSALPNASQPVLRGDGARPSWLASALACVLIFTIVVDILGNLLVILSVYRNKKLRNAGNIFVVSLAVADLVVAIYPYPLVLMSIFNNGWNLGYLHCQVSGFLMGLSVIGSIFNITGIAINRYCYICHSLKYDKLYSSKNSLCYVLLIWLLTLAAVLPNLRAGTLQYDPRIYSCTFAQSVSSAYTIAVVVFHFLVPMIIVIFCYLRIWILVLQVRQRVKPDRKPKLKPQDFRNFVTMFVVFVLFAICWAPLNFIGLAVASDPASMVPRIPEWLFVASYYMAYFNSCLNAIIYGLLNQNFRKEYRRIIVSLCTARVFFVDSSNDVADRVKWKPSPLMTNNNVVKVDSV
Assay procedure: Displacement of 2-[125I]iodomelatonin from human MT1 receptor expressed in CHO cells
Type: cell-based
Settings: read-out: Ki
Just the number in nM, nothing appended.

Use the examples below as a reference point.
                                   compound  metric  quantitative_result
0  COc1ccc2[nH]c(CN3CCc4ccc([N+](=O)[O-])cc43)c(CCNC(C)=O)c2c1      Ki                  302
1  COc1ccc2[nH]c(CN3CCc4ccccc43)c(CCNC(C)=O)c2c1      Ki                  101
2  CCC(=O)NCCc1c(CN2CCc3ccccc32)[nH]c2ccc(OC)cc12      Ki                   38
3  COc1ccc2[nH]c(CN3CCc4cc(C)ccc43)c(CCNC(C)=O)c2c1      Ki                   41

Now look at this entry.
Ask: Suppose we examine the compound COc1cccc(C(CCNC(C)=O)c2ccc3ccccc3c2)c1 (stereo not given) ; what Ki value has been reported?
Result: 132
